The reported numbers originate from patent EP0315467A2.

# assay: Solubility in water of pentamidine salts
# Format: physicochemical
# experimental_setup: Table I
Structures can show the parent of a compound that is named as a salt.
Label no (0) if Solubility in H₂O falls below 100 mg/mL; label yes (1) in every other case.

Determine whether measured Solubility in H₂O meets or exceeds 100 mg/mL for N=C(N)c1ccc(OCCCCCOc2ccc(C(=N)N)cc2)cc1 [Pentamidine Phosphate]
no (0)

Hello, I need to know if N=C(N)c1ccc(OCCCCCOc2ccc(C(=N)N)cc2)cc1 [Pentamidine Gluconate] has measured Solubility in H₂O not below 100 mg/mL. Thanks!
yes (1)

Reported Solubility in H₂O at or above 100 mg/mL? N=C(N)c1ccc(OCCCCCOc2ccc(C(=N)N)cc2)cc1 [Pentamidine Sulfate]
no (0)

Check this compound for Solubility in H₂O at or above 100 mg/mL: N=C(N)c1ccc(OCCCCCOc2ccc(C(=N)N)cc2)cc1 [Pentamidine Tartarate]
no (0)

###

# assay: Solubility in water of pentamidine salts
# Format: physicochemical
# experimental_setup: Table I
Where a name gives a salt, the structure may show the parent alone.
attribute_measured: Solubility in H₂O (µg/mL)
Field format: number, assumed µg/mL, no unit text.

# query: Solubility in H₂O of entry N=C(N)c1ccc(OCCCCCOc2ccc(C(=N)N)cc2)cc1 [Pentamidine Acetate]
17000

GET /values?readout=Solubility in H₂O&item= N=C(N)c1ccc(OCCCCCOc2ccc(C(=N)N)cc2)cc1 [Pentamidine Borate]
6900

Please report the recorded Solubility in H₂O for N=C(N)c1ccc(OCCCCCOc2ccc(C(=N)N)cc2)cc1 [Pentamidine Nitrate] .
1800

Looking for the measured Solubility in H₂O of N=C(N)c1ccc(OCCCCCOc2ccc(C(=N)N)cc2)cc1 [Pentamidine Citrate] , can you help?
600
